Ref: paper PMC10977697

Biological target: HtrA1 FL (Homo sapiens)
Construct: HtrA1 (Q23-P480, 5654, Tni Baculovirus); made in house; host or cells: Trichoplusia ni (Tni) cells, baculovirus
Sequence (Q92743 23-480): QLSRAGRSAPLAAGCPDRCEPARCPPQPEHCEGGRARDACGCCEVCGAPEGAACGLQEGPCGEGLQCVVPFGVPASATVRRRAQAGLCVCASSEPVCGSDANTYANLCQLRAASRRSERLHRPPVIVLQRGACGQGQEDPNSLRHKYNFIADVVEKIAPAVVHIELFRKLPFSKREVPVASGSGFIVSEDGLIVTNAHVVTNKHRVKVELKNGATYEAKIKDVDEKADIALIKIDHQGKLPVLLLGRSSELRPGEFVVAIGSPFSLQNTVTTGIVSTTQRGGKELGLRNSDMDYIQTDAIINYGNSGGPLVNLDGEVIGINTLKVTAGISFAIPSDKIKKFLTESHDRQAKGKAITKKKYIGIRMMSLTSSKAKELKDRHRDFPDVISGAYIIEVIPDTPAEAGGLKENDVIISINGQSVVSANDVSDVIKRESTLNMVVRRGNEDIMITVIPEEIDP
Type: binding
Settings: read-out: Kd(μM) SPR
Bridges are numbered along the chain shown (N, C = ends). Where no end group is shown, it is not given here.
QUANTITY MEASURED: Kd (µM)
Enter your answer as a number in µM; do not include the unit.

Fill in: Kd on HtrA1 FL (Homo sapiens), entry GPTQSFWGWCGGIGYVGGRYCSGTTCQRPDAHWSQCLPGAS (disulfide 10-26, 21-36 (inferred)) [HtrA1_CBDamy86]
158

----------
Tested on: Notch2NRR
Test: Spot phage ELISA, Notch2NRR
Assay type: binding, human
Details: spot phage ELISA on Notch2NRR, signal-to-noise ratio of phage-displayed DCP clone
Where no end group is shown, it is not given here.
Where S/N equals or exceeds 30, the correct label is t; where it does not, the label is f.

Completed entries (count: 5):
Is S/N at least 30? Consider GPTQSHYGQCGGEGYWGRWICSGTTCQPYNTHFSQCLPGAS (disulfide (positions not given here)) [CBD 2]
f

Entry GCTLMRTRCKQDSDCLAGCVCEHIYWCG (disulfide (positions not given here)) [N2N-EET-n19] : is its S/N no less than 30?
f

Threshold query (S/N >= 30) on GCKLMRQRCKQDSDCLAGCVCTQQWWCG (disulfide (positions not given here)) [N2N-EET-94]
t

For this sequence, is measured S/N 30 or higher? AFDCLGQCGRCDFHKLQCVWSNRNSPYCNSSCTR (disulfide (positions not given here)) [AVR9 2]
t

Hi, just wondering whether AFDCLGQCGRCDFHKLQCVWSNRNSLYCNSSCTR (disulfide (positions not given here)) [AVR9 1] shows S/N of 30 or higher.
f

---
Determine whether measured S/N meets or exceeds 30 for GPTQSHYGQCGGTGYWGMRNCSGTTCQRFAPQNSQCLPGAS (disulfide (positions not given here)) [CBD 5]
t

# check: S/N of GPTQSHYGQCGGQGYWGMRHCSGTTCQWGAKGPSQCLPGAS (disulfide (positions not given here)) [CBD 4] is greater than or equal to 30
t

Quick check, S/N >= 30? AFDCLGQCGRCDFHKLQCIWSNRNYPYCNSSCTR (disulfide (positions not given here)) [AVR9 3]
t

Dear colleague, could you confirm whether GPTQSHYGQCGGAGYWGRWICSGTTCQPLPQSKSQCLPGAS (disulfide (positions not given here)) [CBD 1] has S/N at or above 30?
t

Can AFDCLGQCGRCDFHKLQCVWSNRHSPYCNSSCTR (disulfide (positions not given here)) [AVR9 4] be said to have S/N at or above 30?
t

Confirm if S/N reported for the sequence AFDCLGQCGRCDFHKLQCVSSNRNTPYCNSSCTR (disulfide (positions not given here)) [AVR9 5] is 30 or above.
t

Answer whether S/N of GCNGQRRPWGRWCKQDSDCLAGCVCGPNGFCG (disulfide (positions not given here)) [N2N-EET-33-P1] is greater than or equal to 30.
f

Reported S/N reaches at least 30 for AFDCLGQCGRCDFHKLQCVPYSWTYKQYCNSSCTR (disulfide (positions not given here)) [AVR9 9] ?
t

Is it the case that AFDCLGQCGRCDFHKLQCVHSNRNSFYCNSSCTR (disulfide (positions not given here)) [AVR9 7] has S/N reaching or exceeding 30?
t
